System: HeLa (Cervical Carcinoma)
ASSAY_EXPLANATION: Bliss excess, mean over the matrix (fraction); higher = more synergy;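 also: after 72 h of two-drug dosing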
MEASUREMENT_NAME: Bliss excess

Check out these entries, answers already filled in.
1) CN(CCO)CC[C@H](CSc1ccccc1)Nc1ccc(S(=O)(=O)NC(=O)c2ccc(N3CCC([C@@H](O)c4ccccc4-c4ccc(Cl)cc4)CC3)cc2)cc1S(=O)(=O)C(F)(F)F [AZD4320] + C=CCn1c(=O)c2cnc(Nc3ccc(N4CCN(C)CC4)cc3)nc2n1-c1cccc(C(C)(C)O)n1 [AZD1775] (first compound max 1 µM, partner max 1 µM) : -0.0523
2) NC1(C(=O)N[C@@H](CCO)c2ccc(Cl)cc2)CCN(c2ncnc3[nH]ccc23)CC1 [Capivasertib] + CCN(CCO)CCCOc1ccc2c(Nc3cc(CC(=O)Nc4cccc(F)c4)[nH]n3)ncnc2c1 [AZD2811] (first compound max 10 µM, 7x7, partner max 1 µM) : -0.0411
3) Cn1cnc2c(F)c(Nc3ccc(Br)cc3Cl)c(C(=O)NOCCO)cc21 [Selumetinib] + C[C@@H]1COCCN1C2=NC(=NC(=C2)C3(CC3)[S@](=N)(=O)C)C4=C5C=CNC5=NC=C4 [AZD6738] (first compound max 10 µM, 7x7, partner max 10 µM) : 0.0113
4) NC1(C(=O)N[C@@H](CCO)c2ccc(Cl)cc2)CCN(c2ncnc3[nH]ccc23)CC1 [Capivasertib] + CC(C)n1c(=O)n(C)c2cnc3cc(F)c(-c4ccc(OCCCN5CCCCC5)nc4)cc3c21 [AZD1390] (first compound max 10 µM, 7x7, partner max 0.3 µM) : -0.0537
5) COc1nnc2ccc(N3CCC(c4ccc(OCCN5CCN(C)C(=O)[C@H]5C)cc4)CC3)nn12 [AZD5153] + Cc1c2c(nn1C)CSCc1cc(n(C)n1)CSc1cc(c3ccccc3c1)OCCCc1c(C(=O)O)n(C)c3c-2c(Cl)ccc13 [AZD5991] (first compound max 1 µM, 7x7, partner max 1 µM) : 0.0151

Param item = CCN(CCO)CCCOc1ccc2c(Nc3cc(CC(=O)Nc4cccc(F)c4)[nH]n3)ncnc2c1 [AZD2811] + C[C@@H]1COCCN1C2=NC(=NC(=C2)C3(CC3)[S@](=N)(=O)C)C4=C5C=CNC5=NC=C4 [AZD6738] (first compound max 1 µM, 7x7, partner max 10 µM) ; retrieve measured Bliss excess.
-0.0743

Try Cc1c2c(nn1C)CSCc1cc(n(C)n1)CSc1cc(c3ccccc3c1)OCCCc1c(C(=O)O)n(C)c3c-2c(Cl)ccc13 [AZD5991] + CCN(CCO)CCCOc1ccc2c(Nc3cc(CC(=O)Nc4cccc(F)c4)[nH]n3)ncnc2c1 [AZD2811] (first compound max 1 µM, 7x7, partner max 1 µM) next.
0.0319

----------
Each entry below lists one item and its recorded Bliss excess value.
Tested on: LOXIMVI (Melanoma)
ASSAY_EXPLANATION: Bliss excess, mean over the matrix (fraction); higher = more synergy
# output: bare number, no unit

Please review the following examples before continuing.
1. CC1(C)CCC(CN2CCN(c3ccc(C(=O)NS(=O)(=O)c4ccc(NCC5CCOCC5)c([N+](=O)[O-])c4)c(Oc4cnc5[nH]ccc5c4)c3)CC2)=C(c2ccc(Cl)cc2)C1 [Venetoclax] + CN(C)CCCOc1ccc(-c2ccc3ncc4c(c3c2)n(C2CCOCC2)c(=O)n4C)cn1 [AZD0156] (first compound max 1 µM, 7x7, partner max 1 µM) : 0.0539
2. CC1(C)CCC(CN2CCN(c3ccc(C(=O)NS(=O)(=O)c4ccc(NCC5CCOCC5)c([N+](=O)[O-])c4)c(Oc4cnc5[nH]ccc5c4)c3)CC2)=C(c2ccc(Cl)cc2)C1 [Venetoclax] + C[C@@H]1COCCN1C2=NC(=NC(=C2)C3(CC3)[S@](=N)(=O)C)C4=C5C=CNC5=NC=C4 [AZD6738] (first compound max 1 µM, 7x7, partner max 10 µM) : -0.011
3. CC1(C)CCC(CN2CCN(c3ccc(C(=O)NS(=O)(=O)c4ccc(NCC5CCOCC5)c([N+](=O)[O-])c4)c(Oc4cnc5[nH]ccc5c4)c3)CC2)=C(c2ccc(Cl)cc2)C1 [Venetoclax] + C[C@@H](Nc1cc(F)cc(F)c1)c1cc(C(=O)N(C)C)cc2c(=O)cc(N3CCOCC3)oc12 [AZD8186] (first compound max 1 µM, 7x7, partner max 3 µM) : -0.0243
4. COc1cc2ncnc(Nc3ccc(F)c(Cl)c3)c2cc1OCCCN1CCOCC1 [Gefitinib] + CC(C)n1c(=O)n(C)c2cnc3cc(F)c(-c4ccc(OCCCN5CCCCC5)nc4)cc3c21 [AZD1390] (first compound max 10 µM, 7x7, partner max 0.3 µM) : -0.0384
5. Cn1cnc2c(F)c(Nc3ccc(Br)cc3Cl)c(C(=O)NOCCO)cc21 [Selumetinib] + C[C@@H]1COCCN1C2=NC(=NC(=C2)C3(CC3)[S@](=N)(=O)C)C4=C5C=CNC5=NC=C4 [AZD6738] (first compound max 10 µM, 7x7, partner max 10 µM) : 0.0322

Record lookup: for LOXIMVI (Melanoma), what Bliss excess belongs to CN(CCO)CC[C@H](CSc1ccccc1)Nc1ccc(S(=O)(=O)NC(=O)c2ccc(N3CCC([C@@H](O)c4ccccc4-c4ccc(Cl)cc4)CC3)cc2)cc1S(=O)(=O)C(F)(F)F [AZD4320] + C=CCn1c(=O)c2cnc(Nc3ccc(N4CCN(C)CC4)cc3)nc2n1-c1cccc(C(C)(C)O)n1 [AZD1775] (first compound max 1 µM, partner max 1 µM) ?
0.0203

Another molecule to look at: N#Cc1cnc(Nc2cc(NC[C@H]3CNCCO3)c(C(F)(F)F)cn2)cn1 [SRA737] + O=c1[nH]cc(F)c(=O)[nH]1 [5-Fluorouracil] (first compound max 10 µM, 7x7, partner max 20 µM)
-0.0241

Would you kindly repeat that for CN(CCO)CC[C@H](CSc1ccccc1)Nc1ccc(S(=O)(=O)NC(=O)c2ccc(N3CCC([C@@H](O)c4ccccc4-c4ccc(Cl)cc4)CC3)cc2)cc1S(=O)(=O)C(F)(F)F [AZD4320] + C[C@@H](Nc1cc(F)cc(F)c1)c1cc(C(=O)N(C)C)cc2c(=O)cc(N3CCOCC3)oc12 [AZD8186] (first compound max 1 µM, 7x7, partner max 3 µM) ?
-0.0239

Also C=CCn1c(=O)c2cnc(Nc3ccc(N4CCN(C)CC4)cc3)nc2n1-c1cccc(C(C)(C)O)n1 [AZD1775] + C1CN(CCC1(C(=O)N[C@@H](CCO)C2=CC=C(C=C2)Cl)N)C3=NC=NC4=C3C=CN4 [Capivasertib] (first compound max 3 µM, partner max 3 µM) , if possible.
0.0764

Next molecule: COc1cccc(OCCCN)c1-c1cc(Nc2cnc(C#N)cn2)n[nH]1 [Prexasertib] + Cc1cc2ncnn2cc1Nc1ncc2c(n1)n(C1CCOCC1)c(=O)n2C [AZD7648] (first compound max 1 µM, 7x7, partner max 10 µM)
0.0017

Would you kindly repeat that for CN(CCO)CC[C@H](CSc1ccccc1)Nc1ccc(S(=O)(=O)NC(=O)c2ccc(N3CCC([C@@H](O)c4ccccc4-c4ccc(Cl)cc4)CC3)cc2)cc1S(=O)(=O)C(F)(F)F [AZD4320] + CCN(CCO)CCCOc1ccc2c(Nc3cc(CC(=O)Nc4cccc(F)c4)[nH]n3)ncnc2c1 [AZD2811] (first compound max 1 µM, 7x7, partner max 1 µM) ?
0.0896

Next up: CC1(C)CCC(CN2CCN(c3ccc(C(=O)NS(=O)(=O)c4ccc(NCC5CCOCC5)c([N+](=O)[O-])c4)c(Oc4cnc5[nH]ccc5c4)c3)CC2)=C(c2ccc(Cl)cc2)C1 [Venetoclax] + Cc1cc2ncnn2cc1Nc1ncc2c(n1)n(C1CCOCC1)c(=O)n2C [AZD7648] (first compound max 1 µM, 7x7, partner max 10 µM)
-0.0277

Now consider CCc1c2c(nc3ccc(O)cc13)-c1cc3c(c(=O)n1C2)COC(=O)[C@]3(O)CC [SN-38] + O=C(c1cc(Cc2n[nH]c(=O)c3ccccc23)ccc1F)N1CCN(C(=O)C2CC2)CC1 [Olaparib] (first compound max 0.3 µM, 7x7, partner max 10 µM) and answer again.
0.0214
